Where do the numbers come from? From ChEMBL document CHEMBL5058577.

Population Normal (%) values by entry
System: Fibroblast
assay comment: Multiplex assay against human fibroblast
Assay type: toxicity, cell-based
test parameters: 24 h, 1 µM, compound concentration 1 uM, replicate 1
Report only the number, with the unit % understood.

Solved entries (count: 5):
compound=CC(F)(F)CN1CCOc2c(nn(-c3ccccc3Cl)c2-c2ccc(Cl)cc2)C1=O quantity_measured="Population Normal (%)" unit_of_measurement=% recorded_measurement=98
compound=S=C(NCCCc1c[nH]cn1)NCCCN(Cc1ccc(Cl)c(Cl)c1)c1ccc(Br)cn1 quantity_measured="Population Normal (%)" unit_of_measurement=% recorded_measurement=95
compound="Cc1cc(NC(=O)NCCN2CCC(O)(Cc3ccccc3)CC2)c2ccccc2n1 [PALOSURAN]" quantity_measured="Population Normal (%)" unit_of_measurement=% recorded_measurement=97
compound="CN1CCN2c3ccccc3Cc3ccccc3C2C1.Cl (configuration not stated) [MIANSERIN HYDROCHLORIDE]" quantity_measured="Population Normal (%)" unit_of_measurement=% recorded_measurement=97
compound="COc1c(Nc2ccc(S(C)(=O)=O)nc2C)ncnc1OC1CCN(C(=O)OC(C)C)CC1 [ADP-597]" quantity_measured="Population Normal (%)" unit_of_measurement=% recorded_measurement=95

Q. Quick one: give measured Population Normal (%) for O=C(NCCNCC(O)COc1ccc(O)cc1)N1CCOCC1.O=C(NCCNCC(O)COc1ccc(O)cc1)N1CCOCC1.O=C(O)/C=C/C(=O)O (configuration not stated) [XAMOTEROL FUMARATE]
A. 98

Q. Quick one: give measured Population Normal (%) for CCCCCCNC(=O)Nc1ccc(S(=O)(=O)Nc2ccc(CCNC[C@H](O)COc3ccc(O)cc3)cc2)cc1 [L-755507]
A. 98

Q. Quick one: give measured Population Normal (%) for `COc1cc(C(=O)N2CC[C@@H](O)[C@@H](N)C2)cc2nc(-c3cc4ccccc4n3CC3CC3)n(C)c12.Cl`
A. 96

Q. Quick one: give measured Population Normal (%) for COc1ccc2c(c1OCc1ccccc1)C[C@@H](C(=O)O)N(C(=O)C(c1ccccc1)c1ccccc1)C2 [OLODANRIGAN]
A. 93

Q. Quick one: give measured Population Normal (%) for `Cn1cc(C(=O)OCC2CCN(CCNS(C)(=O)=O)CC2)c2ccccc21`
A. 94

Q. Quick one: give measured Population Normal (%) for COCCCN1CCC(NC(=O)c2cc(Cl)c(N)c3c2OCC3)CC1 [PRUCALOPRIDE]
A. 97

Q. Quick one: give measured Population Normal (%) for `N[C@](CC1c2ccccc2Oc2ccccc21)(C(=O)O)[C@H]1C[C@@H]1C(=O)O`
A. 97

* * *

Population Hoechst High Intensity Objects (%) values by entry
System: HEK-293T
assay comment: Multiplex assay against HEK293T
Type: toxicity, cell-based
test parameters: human, 24 h, 10 µM, compound concentration 10 uM, replicate 2
Report only the number, with the unit % understood.

Solved entries (count: 5):
compound="COCCCN1CCC(NC(=O)c2cc(Cl)c(N)c3c2OCC3)CC1 [PRUCALOPRIDE]" system_name=HEK-293T recorded_measurement=9
compound=Cc1cc(O)c(-c2ccc([C@@H](C)CN(C)C)cc2)c2c1[nH]c(=O)c1sccc12 system_name=HEK-293T recorded_measurement=25
compound="Cc1cc(NC(=O)NCCN2CCC(O)(Cc3ccccc3)CC2)c2ccccc2n1 [PALOSURAN]" system_name=HEK-293T recorded_measurement=6
compound="CN(C)C/C=C/C(=O)Nc1ccc(C(=O)N2CCCC(Nc3ncc(Cl)c(-c4c[nH]c5ccccc45)n3)C2)cc1 (centres undefined)" system_name=HEK-293T recorded_measurement=34
compound=CN1CCN(c2ccc(Nc3c4ccccc4nc4ccccc34)cc2)CC1.Cl.Cl.O system_name=HEK-293T recorded_measurement=0

Q. Quick one: give measured Population Hoechst High Intensity Objects (%) for CSc1nc(NC2CCCC2)c([N+](=O)[O-])c(NC2CCCC2)n1 [GS-39783]
A. 6

Q. Quick one: give measured Population Hoechst High Intensity Objects (%) for COc1c(Nc2ccc(S(C)(=O)=O)nc2C)ncnc1OC1CCN(C(=O)OC(C)C)CC1 [ADP-597]
A. 21

Q. Quick one: give measured Population Hoechst High Intensity Objects (%) for Nc1nc(CC(=O)Nc2ccc(CCNC[C@H](O)c3ccccc3)cc2)cs1 [MIRABEGRON]
A. 5

Q. Quick one: give measured Population Hoechst High Intensity Objects (%) for `OCCCNc1cc(-c2ccnc(Nc3cccc(Cl)c3)n2)ccn1`
A. 45
